- tgt: Tyrosinase (Agaricus bisporus)
- Sequence (whole entry): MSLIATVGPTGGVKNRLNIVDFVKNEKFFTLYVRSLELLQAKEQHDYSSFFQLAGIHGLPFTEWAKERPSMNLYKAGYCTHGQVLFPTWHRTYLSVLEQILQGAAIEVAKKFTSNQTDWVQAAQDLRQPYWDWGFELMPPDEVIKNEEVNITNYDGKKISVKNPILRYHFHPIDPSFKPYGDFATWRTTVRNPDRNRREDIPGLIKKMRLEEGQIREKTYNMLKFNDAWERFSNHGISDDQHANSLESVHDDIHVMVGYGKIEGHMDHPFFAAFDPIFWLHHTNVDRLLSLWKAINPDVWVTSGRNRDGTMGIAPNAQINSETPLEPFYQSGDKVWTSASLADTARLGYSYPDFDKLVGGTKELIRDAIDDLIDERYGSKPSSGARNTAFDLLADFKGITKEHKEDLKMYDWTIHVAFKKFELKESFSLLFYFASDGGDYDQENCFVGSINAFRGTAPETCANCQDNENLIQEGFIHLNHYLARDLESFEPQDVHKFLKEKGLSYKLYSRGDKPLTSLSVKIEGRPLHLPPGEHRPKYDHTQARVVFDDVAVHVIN
- assayProcedure: Inhibition of mushroom tyrosinase assessed as L-3,4-dihydroxyphenylalanine oxidation
measure: ID50 (µM)
Express it in µM; write the number only.

Illustrative cases are given below, each with its answer.
smi | tgt | unitLabel | reportedValue
O=C(O)c1ccc(O)cc1 | Tyrosinase (Agaricus bisporus) | µM | 1900
COc1cc(/C=C/C(=O)OC[C@H]2O[C@@H](Oc3cc(O)c4c(=O)c(O)c(-c5ccc(O)cc5)oc4c3)[C@H](O)[C@@H](O)[C@@H]2O)ccc1O | Tyrosinase (Agaricus bisporus) | µM | 440
O=C(/C=C/c1ccc(O)cc1)OC[C@H]1O[C@@H](Oc2cc(O)c3c(=O)c(O)c(-c4ccc(O)cc4)oc3c2)[C@H](O)[C@@H](O)[C@@H]1O | Tyrosinase (Agaricus bisporus) | µM | 390
O=C(O[C@H]1O[C@@H]2COC(=O)c3cc(O)c(O)c(O)c3-c3c(cc(O)c(O)c3O)C(=O)O[C@H]2[C@@H]2OC(=O)c3cc(O)c(O)c(O)c3-c3c(cc(O)c(O)c3O)C(=O)O[C@@H]12)c1cc(O)c(O)c(Oc2c(C(=O)O[C@H]3O[C@@H]4COC(=O)c5cc(O)c(O)c(O)c5-c5c(cc(O)c(O)c5O)C(=O)O[C@H]4[C@@H]4OC(=O)c5cc(O)c(O)c(O)c5-c5c(cc(O)c(O)c5O)C(=O)O[C@@H]34)cc(O)c(O)c2O)c1 | Tyrosinase (Agaricus bisporus) | µM | 61

Q) Output ID50 of O=c1c(O)c(-c2ccc(O)c(O)c2)oc2cc(O)cc(O)c12
A) 70
